Data credit: ChEMBL document CHEMBL1201862

Tested on: SNB-75
Test: NCI tumour cell line growth inhibition, 48 h
Active and inactive are the calls of the source. No stated cut-off is given here; in the data, active = GI50 up to about 1.1 µM and inactive = higher. Square brackets hold non-standard residues; d marks the D form. Peptide text beside a SMILES is read from it. * marks the point of attachment. ξ: configuration not given here. NMeY = CN[C@@H](Cc1ccc(O)cc1)C(=O)O; Cbz = O=C(OCc1ccccc1)*; ξA = CC(N)C(=O)O
Please state which outcome applies, choosing from True for active, False for inactive

Prompt: Any idea what this test logged for CCOC(=O)c1ccc(-c2cccs2)n1C ?
Completion: False

Prompt: How was O=C(c1ccccc1)[C@H]1Nc2ccc(Cl)cc2[C@H]2CCC[C@@H]12 classified in this test?
Completion: False

Prompt: Could you kindly confirm the outcome this assay logged for CC1(C(=O)NCCN(CCNC(=O)C2(C)CC3(C)CC(C)(C2)C(=O)NC3=O)CCNC(=O)C2(C)CC3(C)CC(C)(C2)C(=O)NC3=O)CC2(C)CC(C)(C1)C(=O)NC2=O (stereo not drawn) ?
Completion: False

Prompt: Could you please tell me the result logged for ClCCCc1ccccc1C1=NCCc2ccccc21 in this assay?
Completion: False

Prompt: Dear colleague, could you share the recorded outcome for O=C1CCCC2=C1CC1=C(CCCC1=O)N2c1ccccc1 when you have a moment?
Completion: False

Prompt: # outcome recorded in this test, key = NC(=O)C1CCCNC1 (stereo not drawn)
Completion: False

Prompt: Hi team, can someone confirm the assay call for COC(=O)CNC(=O)/C=C/[C@H](O[Si](C)(C)C(C)(C)C)[C@H](/C=C/C(=O)NCC(=O)OC)O[Si](C)(C)C(C)(C)C ?
Completion: False

Prompt: // param item: O=C1CCC2(c3ccc(Cl)cc3)Nc3cc(Cl)ccc3N12 (stereo not drawn) ; yields the recorded call
Completion: False

Prompt: Per the assay record, what outcome was assigned to CCC(C)C(NC(=O)C(NC(=O)C(CC(N)=O)NC(=O)CN)C(C)O)C(=O)NC(C(=O)NC(C)C(=O)NC(C(=O)NC(CCC(=O)O)C(=O)NC(CC(C)C)C(=O)NC(CC(=O)O)C(=O)NC(C(=O)NC(Cc1ccc(O)cc1)C(=O)N1CCCC1C(=O)O)C(C)O)C(C)C)C(C)C (stereo not drawn) (H-GNTIVAVELDTYP-OH; configuration not given here) ?
Completion: False

Prompt: Per the records of this test, what outcome belongs to N=C(N)SCc1ccc(Cl)c2ccccc12.O=[N+]([O-])c1c(O)c(Cl)cc(Cl)c1Cl ?
Completion: False

Prompt: For this compound, state the assay outcome: COc1cc(OC)c2c(c1)C(=O)C(CC(C)O)=CC2=O (stereo not drawn)
Completion: False

Prompt: Please let me know the test result on file for Cc1cc(CC(O)(C(F)(F)F)C(F)(F)F)cc(CC(O)(C(F)(F)F)C(F)(F)F)n1 .
Completion: False

Prompt: What outcome does the record of this test show for CCN(CC)/N=N/c1c(C(N)=O)n[nH]c1C ?
Completion: False

Prompt: Entry O=C1NC(=O)[C@@]2(CC[C@@H](O)C2)c2ccncc21 [SESBANINE] : call = ?
Completion: False

Prompt: What classification did Cc1cc(N(CCC#N)CCC#N)ccc1/N=N/c1ccc(S(N)(=O)=O)cc1 end up with in this test?
Completion: False

Prompt: Hello, I am checking results. What call was entered for O=C1/C(=C/c2ccc(Cl)cc2)CCC1CN1CCOCC1 (stereo not drawn) ?
Completion: False

Prompt: Please indicate how the test categorized CC(=O)OC1C[C@@H](C)C2(C[C@H](O)c3ccoc3)C(=O)OC[C@]13C2CCC(O)C31CO1 (stereo partly drawn) .
Completion: False

Prompt: What was the test verdict on COc1ccc(C[C@@H](C(=O)N[C@@H](C)C(N)=O)N(C)C(=O)[C@@H]2CCCN2C(=O)[C@H](CC(C)C)NC(=O)C(C)NC(=O)OCc2ccccc2)cc1 (stereo partly drawn) (Cbz-[ξA]LP[NMeY](Me)A-NH2) ?
Completion: False

Prompt: Which outcome was entered for the compound Cc1ccc(S(=O)(=O)N/N=C/c2oc(-c3ccncc3)c(-c3ccncc3)c2[N+](=O)[O-])cc1 in this test?
Completion: False

Prompt: Name the outcome recorded for CCOC(=O)c1nc2ccccc2nc1NCc1cc(OC)c(OC)c(OC)c1 in the assay.
Completion: False

Prompt: How was CCN(CC)Cc1cc(Nc2c3ccccc3nc3c2[nH]c2ccccc23)cc(CN(CC)CC)c1O classified in this test?
Completion: False

Prompt: What was the test verdict on CN(C)c1ccc(/N=N/c2ccccn2)cc1 ?
Completion: False

Prompt: For O=P1(NCCCl)OCCC(OO)N1CCCl (stereo not drawn) , which call appears in the assay record?
Completion: False

Prompt: # outcome recorded in this test, key = CC(=O)O[C@H]1CC[C@@]2(C)C(=CC[C@@H]3C2CC[C@]2(C)Nc4nc5ccccc5cc4CC32)C1 (stereo partly drawn)
Completion: False

Prompt: Which result was noted for this compound in the test: COC(=O)C1C(C)N1C (stereo not drawn)
Completion: False

Prompt: Assay result, entry COc1ccc2c(c1)N=C1CSC(c3cccc(Br)c3)N1C2 (stereo not drawn) — outcome?
Completion: False

Prompt: Recorded test call requested for O=C1CCCCC/C1=C\c1ccc(Cl)cc1
Completion: False

Prompt: What is the recorded call for this compound in the test? O=C1c2nn(-c3ccccc3)nc2C(c2ccccc2)N1c1ccccc1 (stereo not drawn)
Completion: False

Prompt: Look up the recorded call for CO[C@H]1Nc2c(ccc(C)c2O)C(=O)N2C=C(/C=C/C(N)=O)C[C@@H]12 [ANTHRAMYCIN METHYL ETHER] in this test.
Completion: True

Prompt: Any idea what this test logged for C=C1C(=O)O[C@H]2C1C[C@@H](O)/C(C)=C/CC[C@@]1(C)O[C@H]21 (stereo partly drawn) ?
Completion: False

Prompt: Lab log entry: O=C(CNc1ccccc1C(=O)O)Nn1cnc2ccc(S(=O)(=O)Nc3ccccc3C(=O)O)cc2c1=O — outcome as called in the assay?
Completion: False

Prompt: Outcome logged for CC(=O)[O-].[O-]c1c(Cl)cc(Cl)cc1/C=N/Nc1ccccn1.[Zn+2] in this assay:
Completion: False

Prompt: Tell me the recorded outcome of this test for CC1CN(c2ccc(Cl)cc2)CC(C)OC(=O)O1 (stereo not drawn) .
Completion: False

Prompt: # lookup: test call for O=C(O)C1CCCCN1c1ccccc1[N+](=O)[O-] (stereo not drawn)
Completion: False

Prompt: Look up the recorded call for CCOP(=O)(OCC)c1cc2cc(O)ccc2oc1=O in this test.
Completion: False

Prompt: Lab log entry: Fc1ccc(N2C(=S)SC(=N\c3ccccc3)/C2=N/c2ccccc2)cc1 — outcome as called in the assay?
Completion: False

Prompt: // return assay outcome for CC1=CC(=O)/C(=C/NC(N)=S)C(=O)O1
Completion: False

Prompt: Recorded test outcome, item O=C(O)C1=CCCc2ccc3ccccc3c21
Completion: False
